Each entry below lists one item and its recorded melting point value.

>  <Compound>
CC(C)c1ccc(-c2cnc(-c3cccc(C(=O)O)c3)[nH]2)cc1

>  <melting point>
296 to 298 °C

$$$$
>  <Compound>
O=S1(=O)c2cccc3cccc(c23)N1CCN1CC=C(c2ccccc2)CC1

>  <melting point>
106 °C

$$$$
>  <Compound>
CC(C)C(=O)N[C@@H]1CCc2c(c3cc(-c4ccno4)ccc3n2Cc2cccc(F)c2)C1

>  <melting point>
238 to 241 °C

$$$$
>  <Compound>
CCN1C(=O)C(C)(C)C(=O)N(C)c2cc(CN(CCn3ccc4oc(C)cc4c3=O)Cc3nc(C)n4ccccc34)ccc21

>  <melting point>
104 to 109 °C

$$$$
>  <Compound>
Cc1ccc(-c2csc(/C=C/C(=O)Nc3ccc(CN(C)C4CCOCC4)cc3)c2)cc1

>  <melting point>
188 to 190 °C

$$$$

[ask] Name the recorded melting point of the item `CCn1c(=O)c(C)cc2cnc(SC)nc21` in your answer.
[reply] 84 to 86 °C

[ask] Name the recorded melting point of the item CC(=O)Nc1ccc(C23CC2C(=O)NC3=O)cc1 (stereo not given) in your answer.
[reply] > 230 °C

[ask] Name the recorded melting point of the item `CSC(=S)N1CCN(Cc2cc(OC(C)=O)c(OC(C)=O)c(OC(C)=O)c2)CC1` in your answer.
[reply] 141 to 143 °C

[ask] Name the recorded melting point of the item `CCOC(=O)NC(=S)C1=C(N2CCOCC2)CCC1` in your answer.
[reply] 114 to 118 °C

[ask] Name the recorded melting point of the item `CS(=O)(=O)c1ccc(C(=O)Nc2ccc(Cl)c(-c3ncc(C(=O)NO)cn3)c2)c(Cl)c1` in your answer.
[reply] 170 to 172 °C

* * *

Each entry below lists one item and its recorded melting point value.

These recorded examples may help you get a feel for the data.
>  <Compound>
CC(=O)Oc1c(C(=O)c2ccccc2Cl)c(C)nn1C

>  <Property>
melting point

>  <Result>
78 to 79 °C

$$$$
>  <Compound>
Clc1cc(Cl)c(C(Cl)Cl)nc1Cl

>  <Property>
melting point

>  <Result>
61 to 62 °C

$$$$
>  <Compound>
CCCOC(=O)c1cc(=O)c2cc(OCc3cccc(OCc4ccc5ccccc5n4)c3)ccc2o1

>  <Property>
melting point

>  <Result>
109 to 110 °C

$$$$
>  <Compound>
O=S1(=O)N(CCBr)c2ccccc2N1c1ccc(Cl)cc1

>  <Property>
melting point

>  <Result>
86 to 89 °C

$$$$
>  <Compound>
Fc1ccc(C(=Cc2ccccc2Cl)CBr)cc1

>  <Property>
melting point

>  <Result>
68 °C

$$$$
>  <Compound>
CN(C)CCN(C(=O)N(C)C)c1nc2ccccc2[nH]1

>  <Property>
melting point

>  <Result>
193 to 195 °C

$$$$
>  <Compound>
CCOC(=O)c1ccc2c(C=C[N+](=O)[O-])c[nH]c2c1

>  <Property>
melting point

>  <Result>
241 °C

$$$$
>  <Compound>
Cc1csc(Cc2ccc([N+](=O)[O-])cc2)n1

>  <Property>
melting point

>  <Result>
81 to 82 °C

$$$$

[ask] Name the recorded melting point of the item CN1CCC(O)(c2cccc(Cl)c2F)C1 (single isomer, unassigned; (+)) in your answer.
[reply] 123 to 125 °C

[ask] Name the recorded melting point of the item `Nc1nc2ccccc2c2c1nc(O)n2Cc1ccccc1` in your answer.
[reply] > 250 °C

[ask] Name the recorded melting point of the item `COC(=O)c1ccc(NN)cc1S(=O)(=O)NC(C)(C)C` in your answer.
[reply] 133 to 136 °C

[ask] Name the recorded melting point of the item `CCOC(=O)ONC(=N)COc1cc(OCC(=N)NOC(=O)OCC)c2c(C)c(Cc3ccccc3)c(=O)oc2c1` in your answer.
[reply] 87 to 92 °C

[ask] Name the recorded melting point of the item `CCOC(=O)CCCCn1c(=O)[nH]c2ccc([N+](=O)[O-])cc2c1=O` in your answer.
[reply] 173 to 174 °C

[ask] Name the recorded melting point of the item CC1=C2CCC3C(CCC4(C)C3CCC4(C)O)C2(C)CCC1=O (stereo unspecified) in your answer.
[reply] 141 to 144 °C

* * *

Each entry below lists one item and its recorded melting point value.

>  <Compound>
Cn1cncc1C(O)(c1ccc(Cl)cc1)c1cc2nnn3c(=O)cc(-c4cccc(Cl)c4)c(c1)c23 (stereo not given)

>  <Result>
226 °C

$$$$
>  <Compound>
O=c1c2ccccc2c2cnn(-c3ccccc3)c2n1CCCl

>  <Result>
157 to 160 °C

$$$$
>  <Compound>
O=C(CN1CSCC1=O)N1CCC(c2c[nH]c3ccccc23)CC1

>  <Result>
174 to 175 °C

$$$$
>  <Compound>
O=CCOc1cccc(C(=O)O)c1

>  <Result>
120 to 130 °C

$$$$
>  <Compound>
COc1c(Br)cc(-c2c3ccccc3cc3sc4ccccc4c23)cc1Br

>  <Result>
238 to 240 °C

$$$$

[ask] Name the recorded melting point of the item `CCOC(=O)c1cn(CC)c2cc(C(=O)C=CN(C)C)c(F)cc2c1=O` in your answer.
[reply] 176 to 179 °C

* * *

Each entry below lists one item and its recorded melting point value.

>  <Compound>
CC(=O)Nc1ccc(C(=O)N2CC3CC(CN(Cc4ccccc4)C3)C2)cc1

>  <Property>
melting point

>  <Result>
208 °C

$$$$
>  <Compound>
COc1cc(Nc2nccc(-c3ccncc3)n2)cc(OC)c1OC

>  <Property>
melting point

>  <Result>
205 °C

$$$$
>  <Compound>
Cc1cc2cc(N=[N+]=[N-])ccc2[nH]1

>  <Property>
melting point

>  <Result>
57 to 60 °C

$$$$
>  <Compound>
O=C(O)CC(NC(=O)C(Cl)Cl)C(=O)O (stereo unspecified)

>  <Property>
melting point

>  <Result>
165 to 168 °C

$$$$
>  <Compound>
CC(=O)SCC(Cc1ccccc1)NC(=O)OC(C)(C)C (stereo unspecified)

>  <Property>
melting point

>  <Result>
92 to 94 °C

$$$$
>  <Compound>
Clc1ncc(C(c2ccccc2)c2ccccc2)cc1C(c1ccccc1)c1ccccc1

>  <Property>
melting point

>  <Result>
131 to 133 °C

$$$$
>  <Compound>
Nc1nc(C2CC2)nc(C(Cl)(Cl)Cl)n1

>  <Property>
melting point

>  <Result>
111 to 114 °C

$$$$
>  <Compound>
CCOC(=O)c1c(O)c2cnc(SC)nc2n(C)c1=O

>  <Property>
melting point

>  <Result>
166 to 168 °C

$$$$
>  <Compound>
NC(=O)c1cn2c(nc1=O)CCCCC2

>  <Property>
melting point

>  <Result>
219 °C

$$$$
>  <Compound>
Cc1ncsc1C(C)(O)c1cc2ccccc2o1 (stereo unspecified)

>  <Property>
melting point

>  <Result>
139 to 140 °C

$$$$

[ask] Name the recorded melting point of the item NCC(O)c1cc(Cl)cc(Cl)c1 (stereo unspecified) in your answer.
[reply] 66 °C

[ask] Name the recorded melting point of the item `C=Cc1ccc(-n2cnc([N+](=O)[O-])n2)c(C#N)c1` in your answer.
[reply] 103 to 105 °C

[ask] Name the recorded melting point of the item `c1cc2nc3c(n2nc1N1CCCC1)CCCC3` in your answer.
[reply] 161 °C

* * *

Each entry below lists one item and its recorded melting point value.

[ask] Name the recorded melting point of the item `CCCc1cccc(-c2nc(C)cc(Cl)n2)n1` in your answer.
[reply] 77.1 °C

[ask] Name the recorded melting point of the item `CCc1onc(-c2ccccc2)c1C(=O)NCCCCl` in your answer.
[reply] 75 to 76 °C

[ask] Name the recorded melting point of the item `CON(c1ccc([N+](=O)[O-])cc1[N+](=O)[O-])S(=O)(=O)c1cccc(C)c1` in your answer.
[reply] 148 to 150 °C

[ask] Name the recorded melting point of the item O=C1c2ccc([N+](=O)[O-])cc2CC1Br (stereo unspecified) in your answer.
[reply] 88.5 to 90.5 °C

[ask] Name the recorded melting point of the item CCOC1=CC2=CCC3C4CC(C)(C)C(=O)C4(C)CCC3C2(C)CC1 (stereo unspecified) in your answer.
[reply] 133 to 137 °C

[ask] Name the recorded melting point of the item `Cc1c(-c2ccccc2)n[nH]c1OCCN1CCOCC1` in your answer.
[reply] 100 °C

[ask] Name the recorded melting point of the item `COc1ccc(N2CC(=O)N(C)C(=O)N2)cc1` in your answer.
[reply] 179 to 181 °C

[ask] Name the recorded melting point of the item CC(O)Cn1nc2c3c(cc(N)cc31)CCC2 (stereo unspecified) in your answer.
[reply] 125 to 127 °C

[ask] Name the recorded melting point of the item CCOC(=O)C1=C(C)Nc2ccnc(OC(C)C)c2C1c1ccccc1C(F)(F)F (stereo unspecified) in your answer.
[reply] 130 to 131 °C

[ask] Name the recorded melting point of the item `COC(=O)COc1cccc2c(CCBr)c(C)oc12` in your answer.
[reply] 146 to 148 °C

[ask] Name the recorded melting point of the item `C=Cc1cc(C)cc(NC(C)=O)n1` in your answer.
[reply] 140 °C
